# Yap1 mRNA, % UTC per entry
Test system: Yap1 mRNA
protocol: Dose-dependent inhibition of human Yap1 in A-431 cells (Example 8, 10,000 cells per well, RTS4814)
Format: cell-based
conditions: 500.0 nM; A-431 cells, 10,000 cells per well, free uptake, approximately 48 hours, RTS4814
Strand notation (5' to 3'): a small letter for the sugar, then the base; units joined by * are phosphorothioate-linked, units joined directly phosphodiester-linked; [ ] holds rarer units or linkages, { } end groups; capitals alone tell only the bases. k = constrained ethyl (cEt); [5mC] = 5-methylcytosine; d = 2'-deoxy (DNA)
Write the value in % UTC as a bare number.

Consider the following illustrative entries.
{"substance": "1075748 (kG*kT*kA*dA*dA*dT*d[5mC]*dA*dA*dG*dT*dT*dG*k[5mC]*kA*kT; antisense) [compound 1075748]", "measuredOn": "Yap1 mRNA", "Yap1 mRNA, % UTC (% UTC)": 12}
{"substance": "1076486 (kG*kA*kA*dA*d[5mC]*dG*dA*dA*dA*d[5mC]*dG*dG*dG*kA*kA*kA; antisense) [compound 1076486]", "measuredOn": "Yap1 mRNA", "Yap1 mRNA, % UTC (% UTC)": 16}
{"substance": "1074484 (kT*k[5mC]*kA*d[5mC]*dT*dA*dA*dT*dA*dT*dG*dG*dT*k[5mC]*kA*kT; antisense) [compound 1074484]", "measuredOn": "Yap1 mRNA", "Yap1 mRNA, % UTC (% UTC)": 5}
{"substance": "1075207 (k[5mC]*kT*kA*dT*dT*dA*dA*dA*dT*dG*dA*dG*d[5mC]*kA*k[5mC]*k[5mC]; antisense) [compound 1075207]", "measuredOn": "Yap1 mRNA", "Yap1 mRNA, % UTC (% UTC)": 17}
{"substance": "1074594 (DNA kT*kA*kG*dG*dA*dG*d[5mC]*dA*dA*dG*dT*d[5mC]*dT*kT*kG*kT) [compound 1074594]", "measuredOn": "Yap1 mRNA", "Yap1 mRNA, % UTC (% UTC)": 10}

Could you now look at the following substance, please?
I would be grateful if you could share the reported Yap1 mRNA, % UTC for 1075842 (kG*kT*kA*dT*dT*dT*dA*dG*dG*dT*dA*d[5mC]*dT*k[5mC]*kA*kG; antisense) [compound 1075842] . 3

* * *

System: Yap1 mRNA
protocol: Antisense inhibition of human Yap1 in SNU-449 cells by modified oligonucleotides, single dose (Example 5, RTS36584)
Assay type: cell-based
conditions: Table 42 (separate experiment); SNU-449 cells, 10,000 cells per well, free uptake, 2,000 nM modified oligonucleotide, approximately 48 hours; RTS36584; normalized to RIBOGREEN; Yap1 mRNA relative to untreated control cells
Strand notation (5' to 3'): a small letter for the sugar, then the base; units joined by * are phosphorothioate-linked, units joined directly phosphodiester-linked; [ ] holds rarer units or linkages, { } end groups; capitals alone tell only the bases. e = 2'-O-(2-methoxyethyl) (MOE); k = constrained ethyl (cEt); [5mC] = 5-methylcytosine; d = 2'-deoxy (DNA)
propertyName: YAP1 (% UTC)
Give the value in % UTC but do not write % UTC after it.

For orientation, consider the following solved cases.
{"substance": "1198204 (kT*kG*dG*dA*dA*dA*dT*dT*dG*dT*d[5mC]*eT*e[5mC]*eA*kT*kG; antisense) [Compound 1198204]", "propertyName": "YAP1 (% UTC)", "measured": 31}
{"substance": "1198695 (antisense kT*kT*dT*dA*dT*dG*dT*dA*dA*dT*dA*dT*kT*eG*k[5mC]*eA) [Compound 1198695]", "propertyName": "YAP1 (% UTC)", "measured": 75}

If you can, please state the reported YAP1 (% UTC) value of 1198226 (kG*k[5mC]*dA*d[5mC]*dT*dT*dT*dT*dA*d[5mC]*dA*eT*eT*eA*kG*kG) [Compound 1198226] . 23

What measured YAP1 (% UTC) goes with 1198650 (kA*kA*d[5mC]*dA*d[5mC]*dT*dG*dA*dG*dG*dT*dA*kT*eA*kA*e[5mC]) [Compound 1198650] ? 88

Which measured YAP1 (% UTC) value corresponds to 1198683 (antisense kA*k[5mC]*dT*d[5mC]*dT*dT*dA*dT*dA*dT*dG*dG*kT*eT*kT*eT) [Compound 1198683] ? 27

// query YAP1 (% UTC) value for entry 1198705 (kT*kA*dA*dG*dG*dT*dT*dT*d[5mC]*d[5mC]*d[5mC]*dA*kG*eA*kT*eT; antisense) [Compound 1198705] 70

Fill in: YAP1 (% UTC) of 1198696 (antisense kT*kG*dT*dA*dT*dG*dT*d[5mC]*dA*dG*dA*dA*kG*eA*kG*eT) [Compound 1198696] is ___ 12
